Target protein (sequence): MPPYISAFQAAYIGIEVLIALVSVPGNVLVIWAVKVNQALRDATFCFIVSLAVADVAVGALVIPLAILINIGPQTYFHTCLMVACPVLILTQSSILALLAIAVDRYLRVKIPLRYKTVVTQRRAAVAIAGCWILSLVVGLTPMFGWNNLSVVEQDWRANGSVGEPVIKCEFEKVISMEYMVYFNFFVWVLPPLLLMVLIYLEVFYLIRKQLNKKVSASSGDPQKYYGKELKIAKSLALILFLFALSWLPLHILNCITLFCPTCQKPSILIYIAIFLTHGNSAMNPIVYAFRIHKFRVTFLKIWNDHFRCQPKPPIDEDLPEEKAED
property: Ki

>  <given-smiles>
Nc1cccc(C(=O)/C=C/c2cccc(Br)c2)c1

>  <Ki>
1.6 µM

$$$$
>  <given-smiles>
Nc1cccc(C(=O)/C=C/c2ccccc2Br)c1

>  <Ki>
7.1 µM

$$$$
>  <given-smiles>
COc1cc(OC)c(OC)cc1/C=C/C(=O)c1ccccc1

>  <Ki>
5.3 µM

$$$$

Shift focus to the following entry.
Exam item: Specify Ki for O=C(/C=C/c1ccccc1Cl)c1ccccc1 and stop.
Marked response: 6.1 µM

---

target: rat A2A AR (Rattus norvegicus); type: binding; settings: specific binding of the radioligand at maximum tested concentration of 100 µM; rat striatal membranes; duplicate, mean
Sequence (P30543 whole entry): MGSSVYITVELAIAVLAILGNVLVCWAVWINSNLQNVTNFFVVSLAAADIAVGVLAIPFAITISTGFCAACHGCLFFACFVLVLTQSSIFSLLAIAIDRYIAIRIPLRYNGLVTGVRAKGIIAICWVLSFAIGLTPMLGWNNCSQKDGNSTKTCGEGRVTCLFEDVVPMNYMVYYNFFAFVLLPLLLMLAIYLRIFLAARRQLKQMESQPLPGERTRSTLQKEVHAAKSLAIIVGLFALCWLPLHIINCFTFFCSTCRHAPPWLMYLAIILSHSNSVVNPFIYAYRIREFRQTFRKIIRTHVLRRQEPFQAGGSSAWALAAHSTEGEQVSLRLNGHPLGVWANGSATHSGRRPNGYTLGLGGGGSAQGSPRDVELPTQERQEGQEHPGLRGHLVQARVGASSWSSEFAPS
Marks after values point to notes of the source that are not given here.
property: specific binding (%) rA2A vs [3H]NECA

>  <given-smiles>
COc1ccc(C(=O)/C=C/c2ccccc2)cc1

>  <specific binding (%) rA2A vs [3H]NECA>
(106) %

$$$$
>  <given-smiles>
COc1cccc(/C=C/C(=O)c2ccccc2)c1

>  <specific binding (%) rA2A vs [3H]NECA>
(106) %

$$$$
>  <given-smiles>
COc1ccc(/C=C/C(=O)c2ccccc2)c(OC)c1

>  <specific binding (%) rA2A vs [3H]NECA>
(50) %

$$$$
>  <given-smiles>
O=C(/C=C/c1cccc(Br)c1)c1ccccc1

>  <specific binding (%) rA2A vs [3H]NECA>
(42) %

$$$$
>  <given-smiles>
O=C(/C=C/c1ccccc1Br)c1ccccc1

>  <specific binding (%) rA2A vs [3H]NECA>
(50) %

$$$$

Shift focus to the following entry.
Exam item: Specify specific binding (%) rA2A vs [3H]NECA for O=C(/C=C/c1ccccc1Cl)c1ccccc1 and stop.
Marked response: (42) %
